system: RXRa homodimer (NR concentration 180 nM); assay: PBM binding z-score (relative to random genomic background probes); higher = stronger binding; sequences stand for … in GC…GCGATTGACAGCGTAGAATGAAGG
Exercise: state measured PBM binding z-score for each of the sequences provided.
Give the figure by itself; no unit, no explanation.

-- ask # lookup: PBM binding z-score of `TCACGGAGGACACGAAGGTCAGAGCTTTCCAGAG`
-- reply 1.91

-- ask # lookup: PBM binding z-score of `ATCGAAAGGTCGAGCTGAGTATAGAGAAAGGGAA`
-- reply 4.35

-- ask # lookup: PBM binding z-score of `ACTAGTTGGTCAGCTTAGGTCACACACAATTCGG`
-- reply 1.69

-- ask # lookup: PBM binding z-score of `GCTATTAGTCGAAAGGGCAACCGAATGATTCTCG`
-- reply 0.86

-- ask # lookup: PBM binding z-score of `GCTATCAGGCCATTTGGGTCACTCAATGACGGGC`
-- reply 0.858

-- ask # lookup: PBM binding z-score of `ATCTCGAGGTAAAGATAGTTCAGTGAATGCAAAT`
-- reply 0.518

-- ask # lookup: PBM binding z-score of `ATATGTAGGTTAAGGGTCTTTCAGGTTGGTTCGC`
-- reply 1.96

-- ask # lookup: PBM binding z-score of `CGAACTAGGTCATCAAGGACAGTGAATACATTGA`
-- reply 2.67

-- ask # lookup: PBM binding z-score of `TCTAGTTGGTCACGCAGGTCACACACGACGGGTA`
-- reply 3.08

-- ask # lookup: PBM binding z-score of `CGTCATAGTTCAAGGTAACGTAACAGAAAGCAGC`
-- reply 1.99

-- ask # lookup: PBM binding z-score of `TCATATAGGTAAACAGGTGAAAGGCCGTAAGTTA`
-- reply 1.2

-- ask # lookup: PBM binding z-score of `GCTATTAGTTGAAAGGGCTACCGAATGATTCTCG`
-- reply 0.0628

====

system: RARg homodimer (NR concentration 270 nM); experiment: PBM binding z-score (relative to random genomic background probes); higher = stronger binding; sequences stand for … in GC…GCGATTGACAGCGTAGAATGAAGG
value-kind: PBM binding z-score
Give the figure by itself; no unit, no explanation.

-- ask # lookup: PBM binding z-score of `ATCTCTAGGTAACCAAGTTCAGTAAATGCCGAAC`
-- reply 0.809

-- ask # lookup: PBM binding z-score of `TTGAGTAGGTTAGTCGGGGCATTCAGCCAACATA`
-- reply 0.145

-- ask # lookup: PBM binding z-score of `GATACAGGGTCAGGTAGAGGCCAGAGTATGGAAA`
-- reply 4.46

-- ask # lookup: PBM binding z-score of `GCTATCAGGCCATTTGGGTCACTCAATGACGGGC`
-- reply 1.66

-- ask # lookup: PBM binding z-score of `ATCGATAGGTCGTGAGGTGAGTATACAGAAAGGC`
-- reply 1.84

-- ask # lookup: PBM binding z-score of `TATACAGGGTCAAAGGCCAGAATACGAATGTCGA`
-- reply 5.1

====

tested on: VDR homodimer (NR concentration 270 nM); assay: PBM binding z-score (relative to random genomic background probes); higher = stronger binding; sequences stand for … in GC…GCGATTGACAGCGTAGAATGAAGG
Label fulfilled when PBM binding z-score >= 3; otherwise not fulfilled.

-- ask PBM binding z-score >= 3 for `AGTCAAAGTTCATCTAGGTAACGTATGATATGCT` ?
-- reply fulfilled

-- ask PBM binding z-score >= 3 for `CAAACTAGGTCAAGAGATCAAAGTCCGCTTCCCG` ?
-- reply not fulfilled

-- ask PBM binding z-score >= 3 for `TATATAGGGTCAAAGGCCAGAGTACGAATGTCGA` ?
-- reply not fulfilled

-- ask PBM binding z-score >= 3 for `TCTAGCAGGCCAGAGGGTAACTCAAGAGGTACGG` ?
-- reply not fulfilled

-- ask PBM binding z-score >= 3 for `AGCATGAGGTTACCAAAGATCAGGGAAACGCTTG` ?
-- reply not fulfilled

====

system: PXR homodimer (NR concentration 270 nM); experiment: PBM binding z-score (relative to random genomic background probes); higher = stronger binding; sequences stand for … in GC…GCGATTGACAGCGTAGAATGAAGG
value-kind: PBM binding z-score
Give the figure by itself; no unit, no explanation.

-- ask # lookup: PBM binding z-score of `CCGACTGGTGCAGAAAGGTTACCATACCATCCGG`
-- reply 0.0978

-- ask # lookup: PBM binding z-score of `CCTACTGGGCCACGAATGGTCATTGATTCAGTGA`
-- reply -0.838

-- ask # lookup: PBM binding z-score of `ACTATTAGTTGAGACGGGGGCAACCGATAGGTTG`
-- reply 0.549

-- ask # lookup: PBM binding z-score of `TAGCCTAGGTCATGCGAGCCAGTATAGTGTCGGC`
-- reply -0.628

-- ask # lookup: PBM binding z-score of `GCATGTAGGTAATACAAGGTGAAAGTCCGATTGT`
-- reply 0.257

-- ask # lookup: PBM binding z-score of `ATATGTAGATTACATCCGGGTCATTCAGGCTATG`
-- reply 1.22

====

test system: PPARg:RXRa IVT, anti-PPARg (NR concentration 270 nM, RXRa partner concentration 90 nM); experiment: PBM binding z-score (relative to random genomic background probes); higher = stronger binding; sequences stand for … in GC…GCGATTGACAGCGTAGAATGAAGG
Label class 1 when PBM binding z-score >= 3; otherwise class 0.

-- ask PBM binding z-score >= 3 for `GGAACGAGGGCAAGTTGATCGCAGAGTTTGATGG` ?
-- reply class 0

-- ask PBM binding z-score >= 3 for `ATATGTAGCTTAGCTGGGGTCATTCAGACTAGGC` ?
-- reply class 0

-- ask PBM binding z-score >= 3 for `GAGACTGGGGCAAAGCAGGTTACCATAAGGTTGG` ?
-- reply class 1

-- ask PBM binding z-score >= 3 for `ATCGAAAGGTCGAAGGTGAGTGTACCCACCCGAA` ?
-- reply class 0

-- ask PBM binding z-score >= 3 for `ATCTCTAGGTAAGACTCAGTTCAGTGACGAACGC` ?
-- reply class 0

-- ask PBM binding z-score >= 3 for `CCAGACAGGTGAAAGGTAACTCGGTCTGGTACGC` ?
-- reply class 0

-- ask PBM binding z-score >= 3 for `GCTTGTAGATCAAGGATAAGAAAGACTAAGCTAA` ?
-- reply class 0

-- ask PBM binding z-score >= 3 for `GTAACAAGGTGAATAGGTCGTTGATGAGTAGGCG` ?
-- reply class 1

-- ask PBM binding z-score >= 3 for `AGTCAAAGTTCAGGACGAGGTTACGTAAAGCACG` ?
-- reply class 0

-- ask PBM binding z-score >= 3 for `TCTAGTTGGTCACGGTGGTCACACACGACGGGTA` ?
-- reply class 1

-- ask PBM binding z-score >= 3 for `ATCTCTAGATAACCAAGTTCAGTGAATGCCGAAC` ?
-- reply class 0

-- ask PBM binding z-score >= 3 for `TCTCGGAGGACACGAAGCTCAGAGCTTTCCAGAG` ?
-- reply class 0

-- ask PBM binding z-score >= 3 for `CAAACTAGGTCAAGAGGTCAAATTCCGCTTCCCG` ?
-- reply class 1

-- ask PBM binding z-score >= 3 for `CCGACTGGGACAGAAAGGTTACCATACCATCCGG` ?
-- reply class 0

-- ask PBM binding z-score >= 3 for `ATATGTAGGTTAAGGGTCTTTCAGGTTGGTTCGC` ?
-- reply class 1

-- ask PBM binding z-score >= 3 for `TGAATGAGGTTATAAGATCAGTGAACGTTGCAAA` ?
-- reply class 0

-- ask PBM binding z-score >= 3 for `TCGAGTAGGTTCCCAATGGGGCATTCAGCTTTCT` ?
-- reply class 0

-- ask PBM binding z-score >= 3 for `CAAACTAGGTCAAGGTAAAAGTCGGTTTGTGCCA` ?
-- reply class 1

-- ask PBM binding z-score >= 3 for `AGAACGAGGGCCCGCTGAGTTGATAGCAGAGTAG` ?
-- reply class 0

-- ask PBM binding z-score >= 3 for `TCGAGTAGGTTCGGGGCATTCAGAATGGCGTCGA` ?
-- reply class 0

-- ask PBM binding z-score >= 3 for `TAGCCTAGGTCATTGCGCCAGTATAGTACGCATC` ?
-- reply class 0

-- ask PBM binding z-score >= 3 for `GCTTACGGGTCAAAGTTTATAGCATGAATAGAAT` ?
-- reply class 1

-- ask PBM binding z-score >= 3 for `ATATGTAGGTTAGCTGGGGTCATTCAGACTAGGC` ?
-- reply class 1

-- ask PBM binding z-score >= 3 for `CCGAGTAGGTTATGGTGCATTCAGGCAACGGTGA` ?
-- reply class 0

-- ask PBM binding z-score >= 3 for `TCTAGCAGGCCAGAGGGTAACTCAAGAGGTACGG` ?
-- reply class 0

-- ask PBM binding z-score >= 3 for `ACTTACGGGTCAACGAGGTTATTGCACGCGTATA` ?
-- reply class 1
